System: EKVX
Assay: NCI tumour cell line growth inhibition, 48 h
Activity calls are given as the source filed them. No stated cut-off is given here; in the data, active = GI50 up to about 1.1 µM and inactive = higher.
For each record, write down the corresponding GI50.

Per the reported EKVX data, `COC(=O)C(=O)Cc1nc2ccccc2s1` has GI50 of > 100 µM (inactive)

Per the reported EKVX data, Cc1ccc(S(=O)ON2CCC(C(=O)O)(c3ccccc3)CC2)cc1 (stereo not drawn) has GI50 of 33.3 µM (inactive)

Per the reported EKVX data, `O=S1(=O)C[C@@H](O)[C@H](O)CS1` has GI50 of > 100 µM (inactive)

Per the reported EKVX data, O=C1c2c(O)cc(O)cc2OC(c2ccc(O)cc2O)C1O (stereo not drawn) has GI50 of 60.8 µM (inactive)

Per the reported EKVX data, COc1cc(/C=C2\CC(C)C/C(=C\c3ccc(O)c(OC)c3)C2=O)ccc1O (stereo not drawn) has GI50 of 13.8 µM (inactive)

Per the reported EKVX data, `c1ccc2c(c1)[nH]c1c2ncc2[nH]c3ccccc3c21` has GI50 of 12.9 µM (inactive)

Per the reported EKVX data, `O=c1[nH]cnc2cccc(Cl)c12` has GI50 of > 100 µM (inactive)

Per the reported EKVX data, `CCCCCCCCCCCCCCCCSS(C)(=O)=O` has GI50 of > 91.2 µM (inactive)

Per the reported EKVX data, `CCSc1c(C)c2c(n(Cc3ccc(OC)cc3)c1=O)Cc1ccccc1C2` has GI50 of 21.4 µM (inactive)

Per the reported EKVX data, COc1ccc(C(=O)NCCC2CN(S(=O)(=O)C(F)(F)F)c3ccccc32)c(OC)c1 (stereo not drawn) has GI50 of 39 µM (inactive)

Per the reported EKVX data, `O=C(O)C/C(=C\c1ccco1)C(=O)O` has GI50 of > 100 µM (inactive)

Per the reported EKVX data, O=c1onc2n1-c1ccc(Cl)cc1C(=S)N1CSCC21 (stereo not drawn) has GI50 of 29.6 µM (inactive)

Per the reported EKVX data, CCC1(C)C=Cc2c(cc(O)c3c(=O)c4ccccc4n(C)c23)O1 (stereo not drawn) has GI50 of > 10 µM (inactive)

Per the reported EKVX data, COCCNC1CCC2(SCCS2)c2[nH]c3ccccc3c21 (stereo not drawn) has GI50 of > 100 µM (inactive)

Per the reported EKVX data, `Clc1ccc(C(c2ccc(Cl)cc2)c2cncnc2)cc1` has GI50 of > 10 µM (inactive)

Per the reported EKVX data, `CN(C)CCNc1nc2c(no[n+]2[O-])c2ccccc12.[O-][Cl+3]([O-])([O-])O` has GI50 of 26.1 µM (inactive)

Per the reported EKVX data, `Cc1c[n+]([O-])c2ccccc2[n+]1[O-]` has GI50 of > 100 µM (inactive)

Per the reported EKVX data, `C=CC1(c2ccc(Br)cc2)OCCCO1` has GI50 of > 100 µM (inactive)

Per the reported EKVX data, `CN(C)CCN1C(=O)CC[C@@]2(C)C1=CC[C@@H]1[C@@H]2CC[C@@]2(C)[C@H]1CC[C@]2(C)O` has GI50 of > 100 µM (inactive)

Per the reported EKVX data, `Cc1ccc2c(=O)c3ccccc3sc2c1` has GI50 of 55.2 µM (inactive)

Per the reported EKVX data, `Cc1cc(-n2nnc(C(=O)O)c2-c2ccccc2)c2ccc(Cl)cc2n1` has GI50 of > 100 µM (inactive)

Per the reported EKVX data, `COC(=O)[C@H](Cc1ccccc1)NC(=O)NCCN(CCNC(=O)N[C@@H](Cc1ccccc1)C(=O)OC)C(=O)N[C@@H](Cc1ccccc1)C(=O)OC` has GI50 of 30.6 µM (inactive)

Per the reported EKVX data, Cc1ccccc1NC(=O)C1C(=O)N(c2ccccc2C)C(=O)/C1=N\NC(N)=S (stereo not drawn) has GI50 of > 100 µM (inactive)

The measured values listed here are drawn from ChEMBL document CHEMBL1201862.
